Value source: the nanobody polyreactivity screen of Harvey et al. (2022)

assay: yeast display, Sf9 membrane polyspecificity reagent, FACS + sequencing; frameworks hold sequencing errors
measured-endpoint: polyreactivity (PSR sort gate)

sequence-data	polyreactivity (PSR sort gate)
QVQLVESGGGLVQAGGSLRLSCAASGSIFSSYAMGWYRQAPGKERELVAAISWRGGSTYYADSVKGRFTISRDNAKNTVYLQMNSLKPEDTAVYYCAAQYQYYGGRRYDYWGQGTQVTVSS	high polyreactivity
QVQLVESGGGLVQAGGSLRLSCASSGSTFAYYVMGRYIHAPGKEWELVAAISRGGRTYYADSVKGRFTISRDNAKNTVYFQLNSLKPEDTAVYYCAAEGASLAKYDYCGQGTQVTVSS	low polyreactivity
QVQLVESGAGLVQAGGSLRLSCAASGSISRYYAMGWYRQAPGKERELVAAISVSGGSTYYADSVKGRFTISRDNAKNTVYLQMNSLKPEHTAVYYCKKVRLSDYDWGQGTQVTVSS	high polyreactivity
QVQHVESGGGLVQAGGSLRLSCAASGSIFRYYTMGWYRQAPGKERELVAAISYSGGRTYYADSVKGRFTISRDNAKNTVYLQMNSLKPEDTAVYYCAAKLLQLRGRGYEYWGQGTQVTVSS	high polyreactivity

Note: attention shifts to another entry.
Lookup result for QVQHVESGGGLVQAGGSLRLSCAASVSIFSPNDMGCYRQAPGKERELVAAITSAGSTYYADSVKGRFTISRDNAKNSVYLQMNSLKPEDTAVYYCAASYISVTDYAYFPLWYGYWGQGTQVTVSS ; measured polyreactivity (PSR sort gate): low polyreactivity

* * *

assay: yeast display, Sf9 membrane polyspecificity reagent, FACS + sequencing; frameworks hold sequencing errors
measured-endpoint: polyreactivity (PSR sort gate)

sequence-data	result
QVQLVESGGGLVQAGGSLRLSCAASGFTFEGNAMGWYRQAPGKERELVAAISSNGGRTYYADSVKGRFTISRDNAKNTVYLQMNSLKPEDTAVYYCNALRAYSGPDYDYYHGRRYDYWGQGTQVTVSS	low polyreactivity
QVQLVESGGGLVQAGGSLRLSCAASGLTFIYYAMGWYRQAPGKERELVAGITRRGGSTYYADSVKGRFTISRDNAKNNVYLQMNSLKPEDTAVYYCAKSPVYRFDSWGQGTQVTVSS	high polyreactivity
QVQLVESGGGLVQAGGSLRLICAASGFIFTTYAMGWYRQAPGKEREVVAAISSSGTTYYADSVKGRFTISRDNAKNTVYLQMNSLKPEDTAVYYCAARRQFRSYQQRLYYWGQGTQVTVSS	low polyreactivity
QVQLVESGGGLVQAGGSLRLSCAASGRTFIYNAMAWYRQAPWKERELVAGITRSGGSTYYADSVKGRFTISRDNAKNTVYLQMNSLKPEDTAVYYCAAARRTKTFSSYYYWGQGTQVTVSS	high polyreactivity

Lookup result for QVQHVESGGRLVQAGGSLRLSCAASGITFRVYALGWYRQPRGKERELVAAITSSGGSTYYADSVKGRFTISRDNAKNTVYLQMNSLKPEHTAVDYCAAFSAVDSPLDYWGQGTQVTVSS ; measured polyreactivity (PSR sort gate): low polyreactivity

* * *

experiment: yeast display, Sf9 membrane polyspecificity reagent, FACS + sequencing; frameworks hold sequencing errors
measured-endpoint: polyreactivity (PSR sort gate)

Below, each entry is followed by its recorded polyreactivity (PSR sort gate) result.
sequence-data	polyreactivity (PSR sort gate)
QVQLVESGGGLVQAGGSLRLSCADSRFNYSYNAMGSYRKAPGKERELVAAISTSGGRTYYADSVKGRFTISRDNAKNTVYLQMNSLKPEDTAVYYCAALSRNQYDPQSYVYWGQGTQVTGSS	high polyreactivity
QVQLVESGGGIVQAGGSLRLSCAASGRIFLTNAMGWYRQAPGKERELVAAITSGGSTYYADSVKGRFTISRDNAKNTVYLQMNSLKPEDTAVFYCNADTDRYWPYEYDYWGQGTQVTVSS	low polyreactivity
QVQLVESGGGLVQAGGSLRLSCAASGSIFNQYPMGWYRQAPGKERELVAAISSGSTYYADSVKGRFIISRDNAKITVYLQMNSMKAEDTAVNNCAKDRHSPYWAMDYWGQGTQVTVSS	high polyreactivity
QVQLVESGGGLVQAGGSLRLICAASGSIFYIYAMGWYRQAPGKERELVAVIDNSGSTNYADSVKGRFTISRDNAKNTVYLLINSLKPEDTADYYCLKLWLWASYLYDYWGQGTQVTVSS	low polyreactivity
QVQMQESGGGLVQAGGSLRLSCAASCTISQEDWMGWYRQAPGKEREFVAAIGLGSNTNYADSLKGRFTISRDNAKNTVYLQMNSLKPEDTAVYYCAVSVWQYSDHVFRGQGTQVTVSS	low polyreactivity

The following sequences each have a reported value; give each one's polyreactivity (PSR sort gate).
1. QVQLVESAGGLVQAGGSLRLSCAASGRTFIGNAMGWYRQAPAKERELVAGISYRGGSTYYADSVKGRFSFSRDNAKNTVYLQMNSLKPEDTAVYYCAAPGRGGYYYWGQGTQVTVSS
2. QVQLVESGGGLVQAGGTLRLSCAASGSTFDVYAMGWYRQSPVKESELVADINYGDASTYYADSVKGRFTISRDNAKNTVYLQMISLNPEDTSVYYCAAFVYVLNYLSDGGSVYREHDYWGQGTKVTVSS
3. QVQLVESGGGLVQAGGSLRLSCAASGSIFQYYGMVWYRQAPGKERELVASISRSGGSTYYADSVKGRFTISRDNAKNTVYLQMNSLKPEDTAVYYCNAKEPIRRTHLTSTYRDGYWGQGTQVTVSS
4. QVQLVESGGGLVQAGGSLRLSCAASGRTFGQNAMGWYRQAPGKERELVATITLNGGNTYYADSVKGRFTISRDNAKNTVYLQMNSLKPEDTAVYYCNAVPSWYRYRPPRFDYWGQGTQVTVSS

1: high polyreactivity; 2: low polyreactivity; 3: low polyreactivity; 4: low polyreactivity

The following sequences each have a reported value; give each one's polyreactivity (PSR sort gate).
1. QVHLVESGGGLDQAGGSLRLSCAASGSISLIYAMGWYRQAPGKERELVAAITSSGGSTYYADSVKGRFTISRDNAKNTVYLQMNSLKREDTAVYYCAAERWTRRHYSGNDYWGQGTQVTVSS
2. QVQLVESGGGLVQAGGSLRLSCAASGRNFYSYVMGWYRQAPGKERELVASIRVSGGSTYYADSVKGRFTISRDNAKNTVYLQMNSLKPEDTAVYYCAAGYRSGVSLWRFYAYYWGQGTQVTVSS
3. QVQLVESGGGLVQAGGSLRLSCAASGRIFHYNAMGWYRQARGKERQLVAAITGGGGSTYYADSVKGRFTISRDNAKNTVYLEKNSLKPEDTAVYYCAKRYRSSSIRVYYWGLGTQVTVSS
4. QVQLVESGGGLVQARGSLRLSCAASGFIYRYNVMGWYRQAPGKERELVAAISTSGGRTYYADSVKGRFTISRDNAKITVYLQMNSLKPEDTAVYYCIAVISEVHKVRDGFYWGQGSQVTVSS
5. QVQLVESGGGLVQAGGSLRLSCAASGRIFYKYAMGWYRPAPGKERELVASITRSGTSTDYADSVKGRFTISRDNAKNTVYLQMNSLKPEDTADYYCAKRFFSLNGYGYDYWGLGTQVTVSS

["low polyreactivity", "high polyreactivity", "high polyreactivity", "high polyreactivity", "high polyreactivity"]

The following sequences each have a reported value; give each one's polyreactivity (PSR sort gate).
1. QVQLVESGGGLVQAGGSLRLSCAASGITFYKKVMGWYRPAPGKEKELVAAISSSGGSTYYADSVKGRFTISRDNAKNTVYLQRNSLKPEDTAVYYCAADDPLYTPYEFDYWGQGTQVTVSS
2. QVQLVESGGGLVQAGGSLRLSCAASGRTFSGYAMGWYRQAPGKERELVAAINYSDGSTYYADSVKGRFTISRDNAKNTVYLQMNSLKPEDTAVYYCNKVYRYVRYAYDYWGQGTQVTVSS
3. QVQLVESGGGLVQAGGSLRLSCASSGSTFSYYAMGWYRQATGKERELVAGITTNGGRTFYADSVKGRFTISRDNAKNTVYLQMNSLKPEDTAVYYCNARHGRHRRTRSYYWGQGTQVTVSS
4. QVQLVESGGGLVQAGGSLRLSCAASGSILVSYAMGWYRQAPGKERELVAAITRSGVRTYYADSVKGRFTISRDNAKNSVYLQMNSLKPEDTAVYYCAADTYRSSSPYGYWGQGTQVTVSS
5. QVQLLESGGGLVQAGGSLRLTCAASGITFQYYAMGWYRQAPGKERELVAAITSSGVSTYYADSVKGRFTISRDNAKNTVYLQMNSLKPEDTAVYYCNTVVRGWSSSAYDYWGQGTQVTVSS
6. QVQLVESGGGLVQAGGRLRLSCAASGNIFKRYTMGWYRQAPGKERELVAAISGGDSTNYADSVKGRFTISRDNANNTFYLQMNSLKPEDTAVYYCAAGGLTLWHGYILGYWGQGTQVTVSS
7. QVQLVESGGGLVNAGGSLRLSCAASGITFWGYAMGWYRQAPGKERELVAAITSGGTTYYADSVKGRFTISRDNAKNTVYLQMNSLKPEDTAVYYCNARYPSADDWGQGTQVTVSS

1: low polyreactivity; 2: high polyreactivity; 3: high polyreactivity; 4: high polyreactivity; 5: low polyreactivity; 6: low polyreactivity; 7: high polyreactivity
